# Test system: Escherichia coli TOP10
# experiment-notes: shrunken log2 fold change of peptide-encoding DNA abundance (4.5 h post-induction vs induction); higher = less antimicrobial activity (less host growth inhibition)
# setup-conditions: time post-induction: 4.5 h; library: site-saturation at positions 5, 18, 19, 20
quantity-name: shrunken log2 fold change
One number for each entry.

Worked set:
Query string: Query: shrunken log2 fold change; subject: "RRIRKRPPRLPRPRPRPGYIPRP"
Result string: 0.0313

Query string: Query: shrunken log2 fold change; subject: "RRIRQRPPRLPRPRPRPFLKPRP"
Result string: -0.939

Query string: Query: shrunken log2 fold change; subject: "RRIRYRPPRLPRPRPRPGLDPRP"
Result string: -0.188

Query string: Query: shrunken log2 fold change; subject: "RRIRNRPPRLPRPRPRPQMLPRP"
Result string: -0.409

Query string: Query: shrunken log2 fold change; subject: "RRIRRRPPRLPRPRPRPQGNPRP"
Result string: 0.0869

Hi team, please reply with shrunken log2 fold change for each item in this list.
1. RRIRTRPPRLPRPRPRPVWYPRP
2. RRIRIRPPRLPRPRPRPVAEPRP
3. RRIRCRPPRLPRPRPRPTVPPRP

Result string:
[-0.456, 0.243, 0.247]

----------
Field: shrunken log2 fold change. Provide a value for each of the sequences that follow.
# System: Escherichia coli TOP10
# experiment-notes: shrunken log2 fold change of peptide-encoding DNA abundance (4.5 h post-induction vs induction); higher = less antimicrobial activity (less host growth inhibition)
# setup-conditions: time post-induction: 4.5 h; library: site-saturation at positions 5, 18, 19, 20
One number for each entry.

Worked set:
Query string: Query: shrunken log2 fold change; subject: "RRIRGRPPRLPRPRPRPCWAPRP"
Result string: 0.485

Query string: Query: shrunken log2 fold change; subject: "RRIRARPPRLPRPRPRPHWRPRP"
Result string: 0.319

Query string: Query: shrunken log2 fold change; subject: "RRIRIRPPRLPRPRPRPLQHPRP"
Result string: -0.121

Query string: Query: shrunken log2 fold change; subject: "RRIRLRPPRLPRPRPRPYFYPRP"
Result string: -0.942

Query string: Query: shrunken log2 fold change; subject: "RRIRWRPPRLPRPRPRPDRPPRP"
Result string: -0.0134

Query string: Query: shrunken log2 fold change; subject: "RRIRARPPRLPRPRPRPPEQPRP"
Result string: 0.941

Query string: Query: shrunken log2 fold change; subject: "RRIRTRPPRLPRPRPRPYIQPRP"
Result string: -0.274

Let us examine a further case.
Query string: Query: shrunken log2 fold change; subject: "RRIRGRPPRLPRPRPRPSEGPRP"
Result string: 0.356

----------
# Test system: Escherichia coli TOP10
# experiment-notes: shrunken log2 fold change of peptide-encoding DNA abundance (4.5 h post-induction vs induction); higher = less antimicrobial activity (less host growth inhibition)
# setup-conditions: time post-induction: 4.5 h; library: site-saturation at positions 5, 18, 19, 20
Field: shrunken log2 fold change. Provide a value for each of the sequences that follow.

Query string: Query: shrunken log2 fold change; subject: "RRIRKRPPRLPRPRPRPTCCPRP"
Result string: 0.0692

Query string: Query: shrunken log2 fold change; subject: "RRIRCRPPRLPRPRPRPRVEPRP"
Result string: 0.0473

Query string: Query: shrunken log2 fold change; subject: "RRIRMRPPRLPRPRPRPYKKPRP"
Result string: -0.161

Query string: Query: shrunken log2 fold change; subject: "RRIRNRPPRLPRPRPRPDNLPRP"
Result string: -1.04

Hi team, please reply with shrunken log2 fold change for each item in this list.
1. RRIRPRPPRLPRPRPRPTHMPRP
2. RRIRPRPPRLPRPRPRPEIGPRP
3. RRIRTRPPRLPRPRPRPMQPPRP

Result string:
0.255
0.0772
0.0715

Query string: Query: shrunken log2 fold change; subject: "RRIRVRPPRLPRPRPRPHTCPRP"
Result string: -0.345

----------
# Tested on: Escherichia coli TOP10
# experiment-notes: shrunken log2 fold change of peptide-encoding DNA abundance (4.5 h post-induction vs induction); higher = less antimicrobial activity (less host growth inhibition)
# setup-conditions: time post-induction: 4.5 h; library: site-saturation at positions 5, 18, 19, 20
quantity-name: shrunken log2 fold change

Worked set:
Query string: Query: shrunken log2 fold change; subject: "RRIRVRPPRLPRPRPRPAGWPRP"
Result string: 0.689

Query string: Query: shrunken log2 fold change; subject: "RRIRHRPPRLPRPRPRPFSTPRP"
Result string: -0.304

Query string: Query: shrunken log2 fold change; subject: "RRIRCRPPRLPRPRPRPPGSPRP"
Result string: 0.379

Hi team, please reply with shrunken log2 fold change for each item in this list.
1. RRIRHRPPRLPRPRPRPMIIPRP
2. RRIRCRPPRLPRPRPRPPNVPRP
3. RRIRWRPPRLPRPRPRPHHRPRP
4. RRIRWRPPRLPRPRPRPCPDPRP
5. RRIRERPPRLPRPRPRPNMSPRP

Result string:
[-0.205, 0.213, -0.214, 0.111, -0.179]

Hi team, please reply with shrunken log2 fold change for each item in this list.
1. RRIRIRPPRLPRPRPRPPDIPRP
2. RRIRNRPPRLPRPRPRPNRDPRP

Result string:
1: -0.198; 2: -0.0094

Hi team, please reply with shrunken log2 fold change for each item in this list.
1. RRIRHRPPRLPRPRPRPEDCPRP
2. RRIRLRPPRLPRPRPRPAAYPRP
3. RRIRQRPPRLPRPRPRPNSHPRP
4. RRIRLRPPRLPRPRPRPWNNPRP
5. RRIRMRPPRLPRPRPRPRVRPRP

Result string:
[-0.0178, -0.15, -0.191, -0.225, 0.921]

----------
# System: Escherichia coli TOP10
# experiment-notes: shrunken log2 fold change of peptide-encoding DNA abundance (4.5 h post-induction vs induction); higher = less antimicrobial activity (less host growth inhibition)
# setup-conditions: time post-induction: 4.5 h; library: site-saturation at positions 5, 18, 19, 20
Response key: 1 means shrunken log2 fold change >= 0.1; 0 means shrunken log2 fold change < 0.1.

Query string: Determine whether this sequence has shrunken log2 fold change no lower than 0.1: "RRIRYRPPRLPRPRPRPCVTPRP"
Result string: 0

Read the next record carefully.
Query string: Determine whether this sequence has shrunken log2 fold change no lower than 0.1: "RRIRVRPPRLPRPRPRPNTKPRP"
Result string: 1

----------
Field: shrunken log2 fold change. Provide a value for each of the sequences that follow.
# Test system: Escherichia coli TOP10
# experiment-notes: shrunken log2 fold change of peptide-encoding DNA abundance (4.5 h post-induction vs induction); higher = less antimicrobial activity (less host growth inhibition)
# setup-conditions: time post-induction: 4.5 h; library: site-saturation at positions 5, 18, 19, 20
Give bare numbers.

Query string: Query: shrunken log2 fold change; subject: "RRIRRRPPRLPRPRPRPGYSPRP"
Result string: 1.84

Query string: Query: shrunken log2 fold change; subject: "RRIRCRPPRLPRPRPRPNCRPRP"
Result string: -0.00263

Hi team, please reply with shrunken log2 fold change for each item in this list.
1. RRIRKRPPRLPRPRPRPYICPRP
2. RRIRYRPPRLPRPRPRPLWTPRP
3. RRIRARPPRLPRPRPRPDVAPRP
4. RRIRARPPRLPRPRPRPNEGPRP
5. RRIRGRPPRLPRPRPRPHINPRP
6. RRIRDRPPRLPRPRPRPMQDPRP
7. RRIRIRPPRLPRPRPRPRLHPRP

Result string:
1. 0.0572
2. -0.563
3. 1.35
4. -0.175
5. 0.214
6. -0.0272
7. -0.341

----------
# Test system: Escherichia coli TOP10;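 also: peptides expressed intracellularly from a pBAD plasmid library in pooled LB shake-flask culture, induced with 0.3% L-arabinose, DNA abundance read by NGS, three biological replicates, DESeq2 with apeglm shrinkage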
# experiment-notes: shrunken log2 fold change of peptide-encoding DNA abundance (4.5 h post-induction vs induction); higher = less antimicrobial activity (less host growth inhibition)
# setup-conditions: time post-induction: 4.5 h; library: site-saturation at positions 5, 18, 19, 20
Response key: Fulfilled means shrunken log2 fold change >= 0.08; Not fulfilled means shrunken log2 fold change < 0.08.

Here are 5 sequences together with their reported answers.
Query string: Determine whether this sequence has shrunken log2 fold change no lower than 0.08: "RRIRPRPPRLPRPRPRPQIWPRP"
Result string: Not fulfilled

Query string: Determine whether this sequence has shrunken log2 fold change no lower than 0.08: "RRIRKRPPRLPRPRPRPASTPRP"
Result string: Fulfilled

Query string: Determine whether this sequence has shrunken log2 fold change no lower than 0.08: "RRIRVRPPRLPRPRPRPLPMPRP"
Result string: Fulfilled

Query string: Determine whether this sequence has shrunken log2 fold change no lower than 0.08: "RRIRCRPPRLPRPRPRPLEPPRP"
Result string: Not fulfilled

Query string: Determine whether this sequence has shrunken log2 fold change no lower than 0.08: "RRIRKRPPRLPRPRPRPQHWPRP"
Result string: Fulfilled

Continuing:
Query string: Determine whether this sequence has shrunken log2 fold change no lower than 0.08: "RRIRGRPPRLPRPRPRPVPKPRP"
Result string: Fulfilled

Query string: Determine whether this sequence has shrunken log2 fold change no lower than 0.08: "RRIRNRPPRLPRPRPRPVPAPRP"
Result string: Fulfilled

Query string: Determine whether this sequence has shrunken log2 fold change no lower than 0.08: "RRIRDRPPRLPRPRPRPLRAPRP"
Result string: Fulfilled

Query string: Determine whether this sequence has shrunken log2 fold change no lower than 0.08: "RRIRTRPPRLPRPRPRPQKKPRP"
Result string: Not fulfilled

Query string: Determine whether this sequence has shrunken log2 fold change no lower than 0.08: "RRIRRRPPRLPRPRPRPQMAPRP"
Result string: Fulfilled

Query string: Determine whether this sequence has shrunken log2 fold change no lower than 0.08: "RRIRWRPPRLPRPRPRPVNLPRP"
Result string: Not fulfilled

Query string: Determine whether this sequence has shrunken log2 fold change no lower than 0.08: "RRIRRRPPRLPRPRPRPWLEPRP"
Result string: Not fulfilled

Query string: Determine whether this sequence has shrunken log2 fold change no lower than 0.08: "RRIRFRPPRLPRPRPRPSGAPRP"
Result string: Fulfilled

Query string: Determine whether this sequence has shrunken log2 fold change no lower than 0.08: "RRIRLRPPRLPRPRPRPYYGPRP"
Result string: Not fulfilled
